For each of the molecules below, state its pKd.
# pKd = -log10(concentration in molar units)

Input: Please tell me: pKd of CC(=O)NCCCCCC(=O)N[C@H](CCCCN)C(=O)NCCCCCC(=O)N[C@H](CCCNC(=N)N)C(=O)N[C@H](CCCNC(=N)N)C(N)=O , system Rho-associated protein kinase 2 (Homo sapiens, UniProt O75116)?
Output: 3.91

Input: Please tell me: pKd of NCCCC[C@@H](NC(=O)CCCCCNC(=O)c1ccc(C(N)=O)cc1)C(=O)NCCCCCC(=O)N[C@H](CCCN=C(N)N)C(=O)N[C@H](CCCN=C(N)N)C(N)=O , system Rho-associated protein kinase 2 (Homo sapiens, UniProt O75116)?
Output: 6.75

Input: Please tell me: pKd of N=C(N)NCCC[C@@H](NC(=O)[C@@H](CCCNC(=N)N)NC(=O)CCCCCNC(=O)[C@@H](CCCCN)NC(=O)CCCCCNC(=O)Nc1ccc(C(N)=O)cc1)C(N)=O , system Rho-associated protein kinase 2 (Homo sapiens, UniProt O75116)?
Output: 5.21
